In this section, each of the compounds is paired with its reported GI50.
Tested on: UACC-62
Assay: NCI tumour cell line growth inhibition, 48 h
Calls of active or inactive are those of the source. Cut-off read from the data, not from the text of the source: active = GI50 up to about 1.1 µM and inactive = higher.

{"columns": ["compound", "GI50"],
 "data": [
  ["O=C(NC(=O)c1ccccc1[N+](=O)[O-])Nc1ccc(Oc2ncc(Cl)cn2)c([N+](=O)[O-])c1", "0.0834 µM (active)"],
  ["CCOC(=O)Cn1nnc2ccc(Nc3nc4ccccc4nc3C(=O)OCC)cc21", "65.3 µM (inactive)"],
  ["COc1ccc(-c2cc(C(=O)Nc3ccc(C)c(C)c3)nc(NC#N)n2)cc1", "> 100 µM (inactive)"]
]}

## Task I am curious: what GI50 value has been reported for `N=C(N)C1=C(O)NC(=O)N(C2CCCCC2)C1` ?
## Result > 100 µM (inactive)

## Task I am curious: what GI50 value has been reported for `CN(C)CCCNCc1cccc2ccccc12` ?
## Result > 100 µM (inactive)

## Task I am curious: what GI50 value has been reported for COC(=O)C(C(=O)C(=O)Nc1ccccc1C)c1nc2ccc([N+](=O)[O-])cc2nc1O (stereo not drawn) ?
## Result > 100 µM (inactive)

## Task I am curious: what GI50 value has been reported for CNC(=O)N(CCCC(NC(C)=O)C(=O)NCc1ccccc1)Cc1ccccc1 (stereo not drawn) ?
## Result > 100 µM (inactive)

## Task I am curious: what GI50 value has been reported for `CCOC(=O)C(C(=O)OCC)C(=O)c1ccccc1C(=O)c1ccccc1` ?
## Result > 100 µM (inactive)

## Task I am curious: what GI50 value has been reported for CCOC(=O)C(NC(=O)CC)(Nc1ccccc1OC)C(F)(F)F (stereo not drawn) ?
## Result > 100 µM (inactive)

## Task I am curious: what GI50 value has been reported for `COc1ccc(OC)c(/C=C/c2cnnc3ccccc23)c1` ?
## Result 3.74 µM (inactive)

## Task I am curious: what GI50 value has been reported for `N=C(N)N/N=C/c1c(-c2ccc(Cl)c([N+](=O)[O-])c2)nc2sccn12` ?
## Result 1.8 µM (inactive)

## Task I am curious: what GI50 value has been reported for `NC(=O)c1ccc(/N=N/O)nc1` ?
## Result > 100 µM (inactive)

## Task I am curious: what GI50 value has been reported for `CCOC(=O)/C(C(=O)c1ccc([N+](=O)[O-])cc1)=C(\NS(=O)(=O)c1cc(C)c(Cl)cc1[S-])[n+]1ccc(N(C)C)cc1` ?
## Result 49.3 µM (inactive)

## Task I am curious: what GI50 value has been reported for [N-]=[N+]=NC1C(O)C(CO)OC1n1cnc2c(N)ncnc21 (stereo not drawn) ?
## Result 99.5 µM (inactive)

## Task I am curious: what GI50 value has been reported for `Cc1nc2c(=O)n(-c3ccccc3)c3ccccc3c2o1` ?
## Result > 100 µM (inactive)

## Task I am curious: what GI50 value has been reported for `CS(=O)(=O)ON1C(=O)c2ccc(N)cc2C1=O` ?
## Result > 64 µM (inactive)

## Task I am curious: what GI50 value has been reported for COc1c2c(cc3c1-c1c(cc4c(c1OC)OCO4)C1OC3C(C)C1C)OCO2.COc1cc2c(c(OC)c1OC)-c1c(cc3c(c1OC)OCO3)C1OC2C(C)C1C (stereo not drawn) ?
## Result 73.8 µM (inactive)

## Task I am curious: what GI50 value has been reported for CCC(c1ccc2cc(O)ccc2c1)C(C)(C)C(=O)O (stereo not drawn) ?
## Result > 100 µM (inactive)

## Task I am curious: what GI50 value has been reported for `O=S(=O)(N/N=C\c1c2ccccc2[n+]([O-])c2ccccc12)c1ccc(Cl)cc1` ?
## Result > 100 µM (inactive)

## Task I am curious: what GI50 value has been reported for c1ccc2c3c([nH]c2c1)[C@H]1C2CCCCN2CN1CC3 (stereo partly drawn) ?
## Result 51.8 µM (inactive)

## Task I am curious: what GI50 value has been reported for `COc1ccc(C(c2ccc(C(C)C)cc(OC)c2=O)c2ccc(C(C)C)cc(OC)c2=O)cc1` ?
## Result 14.8 µM (inactive)
